assay: growth inhibition, single agents and combos, HD-MB03, cell-based, BGB or cisplatin IC20 combos, synergistic combos for chromothripsis tumors (AID 1671455); settings: HD-MB03 medulloblastoma cells, at 0.5 µM;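 also: 0% = vehicle DMSO and 100% = high DMSO as cytotoxic control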
Active and inactive are the calls of the source. Rule as the data show it: active = inhibition above about 83%; inactive = the rest.
Possible outcomes: active, inactive

| compound | label |
| --- | --- |
| N#Cc1ccc(OC2CCC(NC(=O)CCSc3nc4ccccc4c(=O)[nH]3)CC2)cc1 (stereo unspecified) | inactive |
| CC1OC(CC(=O)O)CC2=C1C(=O)c1c(O)cccc1C2=O (stereo unspecified) | active |
| CC1CNC(=O)NC1=O (stereo unspecified) | inactive |
| C#CCC(CCCCCC)C(=O)O (stereo unspecified) | inactive |
| C[n+]1ccc(-c2c3nc(c(-c4cc[n+](C)cc4)c4ccc([nH]4)c(-c4cc[n+](C)cc4)c4nc(c(-c5cc[n+](C)cc5)c5ccc2[nH]5)C=C4)C=C3)cc1 | inactive |
| C=C(C)C1CCC2(C(=O)O)CCC3(C)C(CCC4C5(C)CCC(O)C(C)(C)C5CCC43C)C12 (stereo unspecified) | inactive |

---

experiment: drug combination growth inhibition, ovarian cancer – cell-based, oncology-focused library, rucaparib conditional, profiling panel (AID 1508598); conditions: patient-derived ovarian cancer cells, CellTiter-Glo viability, 144 h; at 0.313 µM; OCI-C5x cells; without rucaparib
Active and inactive are the calls of the source.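 The calls were made as follows: active = normalized viability below 100% at a tested concentration; inactive = the rest.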
Possible outcomes: t (active), f (inactive)

| molecule | label |
| --- | --- |
| CCC1=CC2CN(C1)Cc1c([nH]c3ccccc13)[C@@](C(=O)OC)(c1cc3c(cc1OC)N(C)[C@H]1[C@@](O)(C(=O)OC)[C@H](OC(C)=O)[C@]4(CC)C=CCN5CC[C@@]31[C@H]54)C2 (stereo not given in full) | t |
| CCOC(=O)c1cnc2ccc(-c3cncc(NS(=O)(=O)c4ccccc4)c3)cn12 | t |
| N[C@@H]1CCCN(c2c(/C=C3\SC(=O)NC3=O)cccc2-c2ccccc2)C1 | t |
| CCOc1ccc(Cc2cc([C@@H]3O[C@H](CO)[C@@H](O)[C@H](O)[C@@H]3O)ccc2Cl)cc1 | f |
| Cc1cc2c(C(=O)NC[C@H](C)c3ccccc3)c(O)c(O)cc2c(O)c1-c1c(C)cc2c(C(=O)NC[C@H](C)c3ccccc3)c(O)c(O)cc2c1O | f |

---

experiment: viability loss with induced miR-34 in A549 – imaging, A549 dox-inducible miR-34, nuclei and caspase counts, primary screen (AID 1347080); conditions: A549 miR-34 inducible, Hoechst nuclei count, 48 h; stronger effect = lower value; cell number ratio, induced over uninduced
Binarize fold change at 0.9; below is yes (1), at or above is no (0).

| molecule | label |
| --- | --- |
| C[C@H]1c2cccc(O)c2C(O)=C2C(=O)C3(O)C(O)=C(C(N)=O)C(=O)[C@@H](N(C)C)[C@@H]3[C@@H](O)[C@@H]21 (stereo not given in full) | yes (1) |
| CN(Cc1nc2ccc(Cl)cc2[nH]1)C(=O)c1n[nH]c2ccccc12 | yes (1) |
| Clc1cnccn1 | no (0) |
| CC(C)n1c(C=CC(O)CC(O)CC(=O)O)c(-c2ccc(F)cc2)c2ccccc21 (stereo not given) | no (0) |
| CNC(=O)[C@H]1O[C@@H](n2cnc3c(NCc4ccc(N)cc4)ncnc32)C(O)[C@H]1O (stereo not given in full) | no (0) |
| OCC1OC(OCCc2ccc(O)cc2)C(O)C(O)C1O (stereo not given) | no (0) |
| CCc1c2c(nc3ccc(OC(=O)N4CCC(N5CCCCC5)CC4)cc13)-c1cc3c(c(=O)n1C2)COC(=O)[C@@]3(O)CC | no (0) |

---

assay: viability loss with induced miR-34 in A549 – imaging, A549 dox-inducible miR-34, nuclei and caspase counts, primary screen (AID 1347080); conditions: A549 miR-34 inducible, Hoechst nuclei count, 48 h; measured here: relative caspase fold change +Dox/-Dox

| molecule | fold change |
| --- | --- |
| O=c1c2nccnc2ncn1Cc1scnc1-c1ccccc1 | 0.515 |
| Fc1ccc2[nH]c(CN3CCN(c4ccccn4)CC3)cc2c1 | 1.18 |
| COc1ccc(NS(=O)(=O)c2sc3ccc(Cl)cc3c2C)cc1N1CCNCC1 | 0.423 |
| CC1COC(Nc2ccc3ncnc(Nc4ccc(OCc5nccs5)c(Cl)c4)c3c2)=N1 (stereo unspecified) | 0.704 |
| C#CCn1c(=O)c2c(ncn2C)n(C)c1=O | 0.997 |
| Cc1ncsc1-c1ccn(CC(=O)Nc2ccnn2Cc2cccs2)n1 | 1.89 |
| C[C@H](Cn1cnc2c(N)ncnc21)OCP(=O)(O)O | 0.901 |
| N=c1ccn2c(n1)OC1C(O)C(CO)OC12 (stereo unspecified) | 0.814 |
| C=CCNC1=C2CC(C)CC(OC)C(O)C(C)C=C(C)C(OC(N)=O)C(OC)C=CC=C(C)C(=O)NC(=CC1=O)C2=O (stereo unspecified) | 1.05 |
| Nc1nc(NCc2ccncc2)c2cn[nH]c2n1 | 0.844 |
| C[C@@H](NCCc1ccc(O)cc1)[C@@H](O)c1ccc(O)cc1 | 1.22 |
| CC(C)n1cnc2c(NCc3ccccc3)nc(NCCO)nc21 | 1.24 |
| CO/N=C(\C(=O)N[C@@H]1C(=O)N2C(C(=O)O)=C(C[N+]3(C)CCCC3)CS[C@H]12)c1csc(N)n1 | 0.702 |
| OC[C@H]1O[C@@H](n2cnc3c(NC4CCCC4)ncnc32)C(O)[C@H]1O (stereo partly specified) | 1.31 |
| N[C@@H](CCC(=O)N[C@H](CSN=O)C(=O)NCC(=O)O)C(=O)O | 1.18 |
| CC(=O)O[C@@]1(C(C)=O)CC[C@H]2[C@@H]3CC(C)C4=CC(=O)CC[C@]4(C)[C@@H]3CC[C@@]21C (stereo partly specified) | 0.806 |
| CCOc1cc2ncc(C#N)c(Nc3ccc(F)c(Cl)c3)c2cc1NC(=O)C=CCN(C)C | 1.02 |
| CC1(C)O[C@@H]2C[C@H]3[C@@H]4CCC5=CC(=O)C=C[C@]5(C)[C@@H]4C(O)C[C@]3(C)[C@@]2(C(=O)CO)O1 (stereo partly specified) | 1.16 |
| N.N.O=C(O)CO.[Pt] | 1.22 |
| O=c1c2nccnc2ncn1Cc1ccc2nsnc2c1 | 1.36 |
| CCCCC/C=C\C\C=C/C=C/C=C/[C@@H](SCC(NC(C)=O)C(=O)O)[C@@H](O)CCCC(=O)O (stereo partly specified) | 1.06 |

---

experiment: MELAS cybrid and Rieske KO viability enhancers – cell-based, MELAS cybrids, Rieske KO mouse fibroblasts, CellTiter-Glo, primary screen (AID 1508586); conditions: MELAS cybrid survival, low glucose, CellTiter-Glo 48 h; stronger effect = higher value;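 also: z relative to plate mean and SD of compound and empty wells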
Items are presented alongside their recorded z-score.
parameter_measured: z-score

| molecule | reported_value |
| --- | --- |
| CC(NC(=O)OCc1ccccc1)C(=O)O (centres undefined) | 0.137 |
| COC(=O)NC(C)CNc1nccc(-c2cn(C(C)C)nc2-c2cc(Cl)cc(NS(C)(=O)=O)c2F)n1 (centres undefined) | 0.61 |
| CCOc1ccccc1O[C@@H](c1ccccc1)[C@H]1CNCCO1 | -0.0519 |
| Nc1nc(NCc2ccncc2)c2cn[nH]c2n1 | -0.45 |
| CC(=O)O[C@]1(C(C)=O)CC[C@H]2[C@@H]3C[C@H](C)C4=CC(=O)C=C[C@]4(C)[C@@]3(F)[C@H](O)C[C@@]21C | -0.0969 |
| CO/N=C(\C(=O)N[C@@H]1C(=O)N2C(C(=O)O)=C(COC(C)=O)CS[C@H]12)c1csc(N)n1 | 0.329 |
| Cc1nc2ccc(CN(C)c3ccc(C(=O)NC(CCC(=O)O)C(=O)O)s3)cc2c(=O)[nH]1 (centres undefined) | -0.603 |
| Cc1nc(Nc2n[nH]c3c2CN(C(=O)NC(CN(C)C)c2ccccc2)C3(C)C)c2sccc2n1 (centres undefined) | 0.106 |
| OCC(CO)NC1C[C@@](O)(CO)C(O)C(O)C1O (some centres undefined) | -0.052 |

---

assay: compounds altering Cy5-DNA-NS3h complex signal – biochemical, LOPAC1280, artefact control for HCV NS3 helicase inhibitor project (AID 687037); details: Cy5-DNA-NS3h complex fluorescence interference counterscreen
Active and inactive are the calls of the source. No rule for the calls is given here.

| compound | fluorescence ratio (interference) |
| --- | --- |
| Nc1ncnc2c1c(I)cn2[C@@H]1C[C@H](N)[C@@H](O)[C@H]1O | 0.9 (inactive) |
| NC(N)=[N+]1CCc2ccccc2C1 | 1.1 (inactive) |
| O=c1ccn([C@@H]2O[C@H](COP(=O)(O)OP(=O)(O)O)[C@@H](O)[C@H]2O)c(=O)[nH]1 | 1 (inactive) |
| Oc1ccc(C2CNCc3sccc32)cc1O (stereo unspecified) | 1 (inactive) |
| CCCn1c(=O)c2[nH]c(-c3ccc(OCC(=O)NCCN)cc3)nc2n(CCC)c1=O | 1 (inactive) |
| COc1ccc(/C=C2\COc3ccc(C)cc3C2=O)cc1O | 1 (inactive) |
| CN1CCc2cc(O)c(O)cc2C(c2ccccc2)C1 (stereo unspecified) | 1 (inactive) |
| CC(=O)N[C@H](C(=O)O)C(C)(C)SN=O | 1 (inactive) |
| COc1ccc(CCn2nnnc2C2(c3ccc(C)cc3)CC2)cc1 | 1.1 (inactive) |
| COc1cccc(C(=O)NCCN2CCN(c3ccc(Cl)cc3)CC2)c1 | 1 (inactive) |
| CC[n+]1c(/C=C/C=C2/N(C)c3ccccc3C2(C)C)sc2ccccc21 | 0.9 (inactive) |
